We begin with a simple list: items and their reported relative viability.
# Tested on: LCLC-103H
# Test details: relative viability (nuclei count vs DMSO), 5 days (fraction); higher = more cells survive
# Details: first compound 0.05 µM
Form field (numeric): enter value without unit.

Here's what some known entries look like.
Compound | Experimental value
Nc1ccn([C@@H]2O[C@H](CO)[C@@H](O)[C@@H]2O)c(=O)n1 [Cytarabine] + Cc1nc(NC(=O)N2CCC[C@H]2C(N)=O)sc1-c1ccnc(C(C)(C)C(F)(F)F)c1 [Alpelisib] (partner 2 µM) | 1.02
COc1cc2nccc(Oc3ccc(NC(=O)Nc4cc(C)on4)c(Cl)c3)c2cc1OC [Tivozanib] + O=C(c1cc(Cc2n[nH]c(=O)c3ccccc23)ccc1F)N1CCN(C(=O)C2CC2)CC1 [Olaparib] (partner 8 µM) | 0.734

Now for a further compound.
Incoming: So what does the record say about relative viability for Nc1ccn([C@@H]2O[C@H](CO)[C@@H](O)[C@@H]2O)c(=O)n1 [Cytarabine] + COc1cccc2cc(-c3nc([C@H]4CC[C@H](C(=O)O)CC4)n4ncnc(N)c34)[nH]c12 [OSI-027] (partner 0.5 µM) ?
Outgoing: 0.511

Data provenance: the supplement of paper PMC10307832
